Tested on: DIPGX29 (H3.3 K27M diffuse intrinsic pontine glioma line)
methodSummary: growth inhibition (% activity, log2 RLU normalised to DMSO / staurosporine); higher = more growth inhibition
experimentalContext: 33 µM
Reported growth inhibition by item:
Supply the numeric figure in %, leaving out any unit text.

Worked cases, growth inhibition given:
compound	assayTarget	growth inhibition / %
CCCN(CCC)CCc1cccc2c1CC(=O)N2	DIPGX29	-1.21
CO/N=C(\C(=O)N[C@@H]1C(=O)N2C(C(=O)O)=C(Cn3ccc(=N)n3CCO)CS[C@H]12)c1csc(N)n1	DIPGX29	-0.673
COc1ccc2cc([C@H](C)C(=O)O)ccc2c1	DIPGX29	-0.22
Cc1cc(-n2c(=O)[nH]c(=O)n(C)c2=O)ccc1Oc1ccc(SC(F)(F)F)cc1	DIPGX29	1.92
Clc1ccc(C(Cn2ccnc2)OCc2c(Cl)cccc2Cl)c(Cl)c1 (stereo not given)	DIPGX29	2.72
O=C(NC(Cc1cc(=O)[nH]c2ccccc12)C(=O)O)c1ccc(Cl)cc1 (stereo not given)	DIPGX29	0.575
CC[C@]1(O)C[C@H]2CN(CCc3c([nH]c4ccccc34)[C@@](C(=O)OC)(c3cc4c(cc3OC)N(C=O)[C@H]3[C@@](O)(C(=O)OC)[C@H](OC(C)=O)[C@]5(CC)C=CCN6CC[C@]43[C@@H]65)C2)C1	DIPGX29	23.4
CCOC(=O)c1ncn2c1CN(C)C(=O)c1cc(F)ccc1-2	DIPGX29	1.51
CCCc1cc(C(N)=S)ccn1	DIPGX29	-2.06

Query :: Please look up its growth inhibition: N=C(N)NC(=N)NCCc1ccccc1
Result :: 2.55

====

System: SUDIPGVI (diffuse intrinsic pontine glioma line)
methodSummary: growth inhibition (% activity, log2 RLU normalised to DMSO / staurosporine); higher = more growth inhibition
experimentalContext: 33 µM
measurementLabel: growth inhibition

Worked cases, growth inhibition given:
compound	measurementLabel	dataValue
CCCCC[C@H](O)/C=C/[C@H]1[C@H](O)CC(=O)[C@@H]1CCCCCCC(=O)O	growth inhibition	1.52%
CN1C(C(=O)Nc2ccccn2)=C(O)c2sc(Cl)cc2S1(=O)=O	growth inhibition	-0.634%
CN1C(CCl)Nc2cc(Cl)c(S(N)(=O)=O)cc2S1(=O)=O (stereo unspecified)	growth inhibition	1.21%
COc1cc2c(cc1OC)C(=O)C(CC1CCN(Cc3ccccc3)CC1)C2 (stereo unspecified)	growth inhibition	-7.35%
C#CC1(O)CCC2C3CCc4cc(OC)ccc4C3CCC21C (stereo unspecified)	growth inhibition	2.06%

Query :: Any idea what growth inhibition came out for CCOC(=O)[C@H](CCc1ccccc1)N[C@@H](C)C(=O)N1Cc2cc(OC)c(OC)cc2C[C@H]1C(=O)O on SUDIPGVI?
Result :: -11%

Query :: Another: CN(C)CCN(Cc1ccccc1)c1ccccn1
Result :: 1.29%

Query :: Another: COc1cc2c(cc1Cc1cccc(Cl)c1F)c(=O)c(C(=O)O)cn2[C@H](CO)C(C)C
Result :: 1.61%

Query :: Another: CO[C@H]1/C=C/O[C@@]2(C)Oc3c(C)c(O)c4c(O)c(c(/C=N/N5CCN(C)CC5)c(O)c4c3C2=O)NC(=O)/C(C)=C\C=C\[C@H](C)[C@H](O)[C@@H](C)[C@@H](O)[C@@H](C)[C@H](OC(C)=O)[C@@H]1C
Result :: -1.69%

Query :: Another: CNC(=O)CN(CCN(CCN(CC(=O)[O-])CC(=O)NC)CC(=O)[O-])CC(=O)[O-].[Gd+3]
Result :: -1.67%

Query :: Another: CC12CC3CC(C)(C1)CC(N)(C3)C2
Result :: 0.617%

Query :: Another: COc1cc(OC)c(C(=O)CCCN2CCCC2)c(OC)c1
Result :: 0.936%

Query :: Another: CCOC(=O)C1=C[C@@H](OC(CC)CC)[C@H](NC(C)=O)[C@@H](N)C1
Result :: 0.0268%
